Biological target: D1 receptor (Homo sapiens, UniProt P21728)
Sequence (P21728 whole entry): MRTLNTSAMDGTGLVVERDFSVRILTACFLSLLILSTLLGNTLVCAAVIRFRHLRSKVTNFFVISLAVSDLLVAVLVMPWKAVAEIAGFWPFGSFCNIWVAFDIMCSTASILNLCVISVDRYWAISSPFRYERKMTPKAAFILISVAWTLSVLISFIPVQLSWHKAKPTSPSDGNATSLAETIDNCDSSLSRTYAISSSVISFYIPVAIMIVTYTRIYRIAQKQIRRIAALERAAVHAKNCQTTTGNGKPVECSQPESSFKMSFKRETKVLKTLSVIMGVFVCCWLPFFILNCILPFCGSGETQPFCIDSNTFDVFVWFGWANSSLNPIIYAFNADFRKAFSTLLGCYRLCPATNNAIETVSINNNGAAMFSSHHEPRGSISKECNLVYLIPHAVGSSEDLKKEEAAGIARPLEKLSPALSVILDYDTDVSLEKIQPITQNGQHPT
Experiment: Radioligand binding assay, dopamine D1
Rule: IC50 below 6 µM gives Condition met, anything at or above gives Condition not met.

[Q] Is 6 µM strictly greater than the molecule's reported IC50? molecule: `CN1CCN(c2cc(Cl)cc3c2c(=O)n(CCc2ccccc2)c(=O)n3Cc2ccccc2)CC1`
[A] Condition met

[Q] Is 6 µM strictly greater than the molecule's reported IC50? molecule: `CN1CCN(c2cc(Cl)cc3c2c(=O)n(Cc2ccccc2)c(=O)n3Cc2ccccc2)CC1`
[A] Condition met

[Q] Is 6 µM strictly greater than the molecule's reported IC50? molecule: `O=c1c2c(N3CCNCC3)cc(Cl)cc2n(Cc2ccccc2)c(=O)n1CCc1ccccc1`
[A] Condition met

[Q] Is 6 µM strictly greater than the molecule's reported IC50? molecule: `CN1CCN(c2cc(Cl)cc3c2c(=O)n(CCCc2ccccc2)c(=O)n3Cc2ccccc2)CC1`
[A] Condition met

[Q] Is 6 µM strictly greater than the molecule's reported IC50? molecule: `C[C@@H](c1ccccc1)n1c(=O)c2c(N3CCNCC3)cc(Cl)cc2n(Cc2ccccc2)c1=O`
[A] Condition not met

[Q] Is 6 µM strictly greater than the molecule's reported IC50? molecule: `O=c1c2c(N3CCNCC3)cc(Cl)cc2n(Cc2ccccc2)c(=O)n1CCCc1ccccc1`
[A] Condition met

[Q] Is 6 µM strictly greater than the molecule's reported IC50? molecule: `C[C@@H](c1ccccc1)n1c(=O)c2c(N3CCN(C)CC3)cc(Cl)cc2n(Cc2ccccc2)c1=O`
[A] Condition not met

[Q] Is 6 µM strictly greater than the molecule's reported IC50? molecule: `C[C@H](c1ccccc1)n1c(=O)c2c(N3CCN(C)CC3)cc(Cl)cc2n(Cc2ccccc2)c1=O`
[A] Condition met

---

Biological target: 5-HT7 (human recombinant receptor, CHO-K1) (Homo sapiens, UniProt P34969)
Sequence (P34969 whole entry): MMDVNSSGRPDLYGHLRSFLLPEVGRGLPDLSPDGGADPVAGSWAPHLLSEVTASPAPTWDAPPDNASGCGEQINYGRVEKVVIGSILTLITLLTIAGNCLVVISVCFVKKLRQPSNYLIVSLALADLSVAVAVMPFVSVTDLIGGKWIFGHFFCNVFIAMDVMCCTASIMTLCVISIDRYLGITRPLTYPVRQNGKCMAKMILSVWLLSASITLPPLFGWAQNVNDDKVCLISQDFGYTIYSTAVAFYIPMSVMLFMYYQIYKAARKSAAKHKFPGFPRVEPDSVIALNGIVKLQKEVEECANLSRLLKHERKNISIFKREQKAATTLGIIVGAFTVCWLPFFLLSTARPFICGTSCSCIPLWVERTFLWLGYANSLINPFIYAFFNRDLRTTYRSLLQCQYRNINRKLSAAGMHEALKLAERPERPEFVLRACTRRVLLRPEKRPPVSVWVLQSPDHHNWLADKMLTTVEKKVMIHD
Assay: Radioligand binding assay, 5-HT7
Can you tell me IC50 for the items I'm about to list?
Respond with the bare value in µM.

Kindly note the recorded IC50 for `O=c1c2c(N3CCNCC3)cc(Cl)cc2n(Cc2ccccc2)c(=O)n1CCc1ccccc1` , which is 7.71

Kindly note the recorded IC50 for `CN1CCN(c2cc(Cl)cc3c2c(=O)n(Cc2ccccc2Cl)c(=O)n3Cc2ccccc2)CC1` , which is 2.18

Kindly note the recorded IC50 for `CN1CCN(c2cc(Cl)cc3c2c(=O)n(Cc2ccccc2)c(=O)n3Cc2ccccc2)CC1` , which is 6.78

Kindly note the recorded IC50 for `C[C@@H](c1ccccc1)n1c(=O)c2c(N3CCNCC3)cc(Cl)cc2n(Cc2ccccc2)c1=O` , which is 7.89

Kindly note the recorded IC50 for `CN1CCN(c2cc(Br)cc3c2c(=O)n(Cc2ccccc2Cl)c(=O)n3Cc2ccccc2)CC1` , which is 5.14

Kindly note the recorded IC50 for `C[C@@H](c1ccccc1)n1c(=O)c2c(N3CCN(C)CC3)cc(Cl)cc2n(Cc2ccccc2)c1=O` , which is 2.74

Kindly note the recorded IC50 for `CCCCCCCCn1c(=O)c2c(N3CCN(C)CC3)cc(Cl)cc2n(Cc2ccccc2)c1=O` , which is 2.56

Kindly note the recorded IC50 for `C[C@H](c1ccccc1)n1c(=O)c2c(N3CCN(C)CC3)cc(Cl)cc2n(Cc2ccccc2)c1=O` , which is 7.42

Kindly note the recorded IC50 for `CN1CCN(c2cc(Cl)cc3c2c(=O)n(Cc2ccc(Cl)cc2)c(=O)n3Cc2ccccc2)CC1` , which is 2.21

Kindly note the recorded IC50 for `Cc1ccc(Cn2c(=O)c3c(N4CCN(C)CC4)cc(Cl)cc3n(Cc3ccccc3)c2=O)o1` , which is 8.74

---

Can you tell me melting point for the items I'm about to list?

Kindly note the recorded melting point for Cc1ccc(Cn2c(=O)c3c(N4CCN(C)CC4)cc(Cl)cc3n(Cc3ccccc3)c2=O)o1 [Example 47] , which is 132 to 136 °C

Kindly note the recorded melting point for COC(=O)c1ccc(Cn2c(=O)c3c(N4CCN(C)CC4)cc(Cl)cc3n(Cc3ccccc3)c2=O)cc1 [Example 38] , which is 90 to 94 °C

Kindly note the recorded melting point for CN1CCN(c2cc(Cl)cc3c2c(=O)n(-c2ccccc2)c(=O)n3Cc2ccccc2)CC1 [Example 8] , which is 111 to 119 °C

Kindly note the recorded melting point for CN1CCN(c2cc(Cl)cc3c2c(=O)n(Cc2cccc(I)c2)c(=O)n3Cc2ccccc2)CC1 [Example 20] , which is 182 to 184 °C

Kindly note the recorded melting point for CN1CCN(c2cc(Cl)cc3c2c(=O)n(Cc2ccccc2)c(=O)n3C)CC1 [Example 50] , which is 132 to 136 °C

Kindly note the recorded melting point for Cc1cc(C)cc(CCCn2c(=O)c3c(N4CCN(C)CC4)cc(Cl)cc3n(Cc3ccccc3)c2=O)c1 [Example 44] , which is 67 to 73 °C

Kindly note the recorded melting point for CN1CCN(c2cc(Cl)cc3c2c(=O)n(Cc2cccc(Cl)c2)c(=O)n3Cc2ccccc2)CC1 [Example 18] , which is 165 to 169 °C

Kindly note the recorded melting point for CCCCCCCCn1c(=O)c2c(N3CCN(C)CC3)cc(Cl)cc2n(Cc2ccccc2)c1=O [Example 7] , which is 78 to 80 °C

---

Can you tell me melting point for the items I'm about to list?

Kindly note the recorded melting point for CC(C)CCn1c(=O)c2c(N3CCN(C)CC3)cc(Cl)cc2n(Cc2ccccc2)c1=O [Example 5] , which is 62 to 68 °C

Kindly note the recorded melting point for CN1CCN(c2cc(Cl)cc3c2c(=O)n(Cc2cccc(Br)c2)c(=O)n3Cc2ccccc2)CC1 [Example 15] , which is 154 to 157 °C

Kindly note the recorded melting point for O=c1c2c(N3CCNCC3)cc(Cl)cc2n(Cc2ccccc2)c(=O)n1Cc1ccccc1Br [Example 60] , which is 94 to 97 °C

Kindly note the recorded melting point for O=c1c2c(N3CCNCC3)cc(Cl)cc2n(Cc2ccccc2)c(=O)n1Cc1ccccc1 [Example 57] , which is 115 to 123 °C

Kindly note the recorded melting point for CN1CCN(c2cc(Cl)cc3c2c(=O)n(Cc2ccccc2[N+](=O)[O-])c(=O)n3Cc2ccccc2)CC1 [Example 31] , which is 164 to 169 °C

Kindly note the recorded melting point for COc1ccc(Cn2c(=O)c3c(N4CCN(C)CC4)cc(Cl)cc3n(Cc3ccccc3)c2=O)cc1 [Example 27] , which is 81 to 89 °C

Kindly note the recorded melting point for CCCn1c(=O)c2c(N3CCN(C)CC3)cc(Cl)cc2n(Cc2ccccc2)c1=O [Example 3] , which is 120 to 121 °C

Kindly note the recorded melting point for CN1CCN(c2cc(Cl)cc3c2c(=O)n(Cc2cccc([N+](=O)[O-])c2)c(=O)n3Cc2ccccc2)CC1 [Example 32] , which is 200 to 205 °C

---

Biological target: D3 (hD3 receptor) (Homo sapiens)
Sequence (P35462 whole entry): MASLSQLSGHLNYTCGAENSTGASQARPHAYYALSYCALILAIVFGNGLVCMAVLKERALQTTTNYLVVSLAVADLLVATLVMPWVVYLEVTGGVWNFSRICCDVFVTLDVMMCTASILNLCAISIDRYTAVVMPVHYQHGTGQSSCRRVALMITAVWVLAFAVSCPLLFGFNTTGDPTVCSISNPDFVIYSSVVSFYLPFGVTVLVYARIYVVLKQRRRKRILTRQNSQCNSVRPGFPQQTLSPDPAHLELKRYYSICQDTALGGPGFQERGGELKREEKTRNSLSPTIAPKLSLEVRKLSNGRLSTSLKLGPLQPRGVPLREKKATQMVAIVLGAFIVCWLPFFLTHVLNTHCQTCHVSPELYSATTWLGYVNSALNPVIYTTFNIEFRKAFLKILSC
ATTRIBUTE_MEASURED: IC50 (nM)
Respond with the bare value in nM.

Kindly note the recorded IC50 for `CN1CCN(c2cc(Cl)cc3c2c(=O)n(Cc2ccc(Cl)cc2)c(=O)n3Cc2ccccc2)CC1` , which is 1010

Kindly note the recorded IC50 for `CN1CCN(c2cc(Cl)cc3c2c(=O)n(Cc2ccccc2F)c(=O)n3Cc2ccccc2)CC1` , which is 2660

Kindly note the recorded IC50 for `C[C@H](c1ccccc1)n1c(=O)c2c(N3CCN(C)CC3)cc(Cl)cc2n(Cc2ccccc2)c1=O` , which is 983

Kindly note the recorded IC50 for `CN1CCN(c2cc(Cl)cc3c2c(=O)n(Cc2cccc([N+](=O)[O-])c2)c(=O)n3Cc2ccccc2)CC1` , which is 276

Kindly note the recorded IC50 for `O=c1c2c(N3CCNCC3)cc(Cl)cc2n(Cc2ccccc2)c(=O)n1Cc1ccccc1Cl` , which is 381

Kindly note the recorded IC50 for `CN1CCN(c2cc(Cl)cc3c2c(=O)n(Cc2ccccc2Cl)c(=O)n3Cc2ccccc2)CC1` , which is 138

Kindly note the recorded IC50 for `O=c1c2c(N3CCNCC3)cc(Cl)cc2n(Cc2ccccc2)c(=O)n1Cc1ccccc1F` , which is 3130

Kindly note the recorded IC50 for `CN1CCN(c2cc(Cl)cc3c2c(=O)n(CCCc2ccccc2)c(=O)n3Cc2ccccc2)CC1` , which is 1750

Kindly note the recorded IC50 for `CN1CCN(c2cc(Br)cc3c2c(=O)n(Cc2ccccc2Cl)c(=O)n3Cc2ccccc2)CC1` , which is 1440

Kindly note the recorded IC50 for `CN1CCN(c2cc(Cl)cc3c2c(=O)n(CCc2ccccc2)c(=O)n3Cc2ccccc2)CC1` , which is 638

Kindly note the recorded IC50 for `Cc1cc(C)cc(CCCn2c(=O)c3c(N4CCN(C)CC4)cc(Cl)cc3n(Cc3ccccc3)c2=O)c1` , which is 73
